src = paper PMC6267684

assayMethodText: Pharmacokinetics in tumor-bearing KPC mice after 25 mg/kg single or multiple dose oral gavage
Type: in vivo
studyConditions: KPC, mouse; liver; day 14, multiple PO doses 25 mg/kg/day
parameterMeasured: AUC(0-inf) (µg·h/mL)
Return type: number; implicit unit µg·h/mL.

Ask | # input molecule: `N=c1c2c(-c3ccccc3)c(-c3ccccc3)n(Cc3ccccc3)c2ncn1[C@H]1CC[C@H](O)CC1` ; wanted: its AUC(0-inf)
Reply | 1350

====

assayMethodText: Pharmacokinetics in C57BL/6 mice after single IV and PO administration
Type: in vivo
studyConditions: C57BL/6, mouse; plasma; 3 mg/kg IV single dose; read-out: AUC0–24h
parameterMeasured: AUC(0-t)
Answers without a unit are incomplete; give the number and then its unit.

Ask | What value of AUC(0-t) has been recorded for this entry: `N=c1c2c(-c3ccccc3)c(-c3ccccc3)n(Cc3ccccc3)c2ncn1[C@H]1CC[C@H](O)CC1`
Reply | 1010 ng·h/mL

====

assayMethodText: Steady-state PK in KPC mice fed metarrestin-infused chow
Type: in vivo
studyConditions: KPC, mouse, po; spleen; day 10, chow, target dose 10 mg/kg/day
parameterMeasured: Cmax (ng/mL)
Numeric answer only, unit ng/mL assumed.

Ask | What value of Cmax has been reported for the following molecule? `N=c1c2c(-c3ccccc3)c(-c3ccccc3)n(Cc3ccccc3)c2ncn1[C@H]1CC[C@H](O)CC1`
Reply | 5840

====

assayMethodText: Pharmacokinetics in tumor-bearing KPC mice after 25 mg/kg single or multiple dose oral gavage
Assay type: in vivo
studyConditions: KPC, mouse; plasma; day 14, multiple PO doses 25 mg/kg/day
parameterMeasured: Cmax (ng/mL)
State the answer as a number, implicitly in ng/mL.

Ask | Form field: reported Cmax of `N=c1c2c(-c3ccccc3)c(-c3ccccc3)n(Cc3ccccc3)c2ncn1[C@H]1CC[C@H](O)CC1`
Reply | 2000

====

assayMethodText: Pharmacokinetics in C57BL/6 mice after single IV and PO administration
Format: in vivo
studyConditions: C57BL/6, mouse; liver; 10 mg/kg PO single dose
Procedure: For pharmacokinetic studies, metarrestin solutions prepared in 30% PEG-400 and 70% (20% w:v HP-β-CD in water) solution were administered to C57BL/6 mice at 3 mg/kg IV via tail vein injection, or 3 and 10 mg/kg orally via gavage. […] An ultra-performance liquid chromatography–tandem mass spectrometry (UPLC–MS/MS) method was developed to determine metarrestin concentrations in plasma and tissue samples. […] Data were analyzed using MassLynx V4.1. […]
parameterMeasured: AUC(0-inf)

Ask | Requested field: AUC(0-inf). Item: `N=c1c2c(-c3ccccc3)c(-c3ccccc3)n(Cc3ccccc3)c2ncn1[C@H]1CC[C@H](O)CC1`
Reply | 281 µg·h/mL

====

assayMethodText: Pharmacokinetics in C57BL/6 mice after single IV and PO administration
Format: in vivo
studyConditions: C57BL/6, mouse, plasma, po, 10 mg/kg; 10 mg/kg PO single dose
parameterMeasured: half-life (h)
Just the number in h, nothing appended.

Ask | Please look up its half-life: N=c1c2c(-c3ccccc3)c(-c3ccccc3)n(Cc3ccccc3)c2ncn1[C@H]1CC[C@H](O)CC1 [metarrestin]
Reply | 5.6

====

assayMethodText: Pharmacokinetics in C57BL/6 mice after single IV and PO administration
Type: in vivo
studyConditions: C57BL/6, mouse; liver; 3 mg/kg PO single dose
parameterMeasured: AUC(0-inf) (ng·h/mL)
Kindly provide the numeric value in ng·h/mL only, without the unit symbol.

Ask | Fill in: AUC(0-inf) of `N=c1c2c(-c3ccccc3)c(-c3ccccc3)n(Cc3ccccc3)c2ncn1[C@H]1CC[C@H](O)CC1` is ___
Reply | 68600
